System: H1N1 A/PR/8/1934
condition_parameters: A/PR/8/1934, 48 h, 1 μM
Bridge positions count the residues as written; N and C are the ends. Square brackets hold non-standard residues; d marks the D form. Peptide text beside a SMILES is read from it.
assay_endpoint: % Inhibition (%)

# molecule, target_system, assay_endpoint, op, numeric_readout
rows = [
    ("CC[C@@H](C)[C@H]1NC(=O)[C@@H](Cc2ccccc2)NC(=O)[C@@H]([C@H](C)O)NC(=O)[C@@H](Cc2ccccc2)NC(=O)[C@@H](Cc2c[nH]c3ccccc23)NC(=O)[C@@H](Cc2c[nH]c3ccccc23)NC(=O)[C@H](NC(=O)[C@H](CCCCN)NC(=O)[C@H](CCCCN)NC(=O)[C@H](CCCNC(=N)N)NC(=O)[C@@H](N)CCCNC(=N)N)CSSC[C@H](C(=O)O)NC(=O)[C@@H](C(C)C)NC1=O [PSP VI A18, H-RRKKcwwftfivc-OH] (H-RRKK[dC][dW][dW][dF][dT][dF][dI][dV][dC]-OH; disulfide 5-13)", "H1N1 A/PR/8/1934", "% Inhibition", "=", 53),
    ("CC[C@@H](C)[C@H]1NC(=O)[C@@H](Cc2ccccc2)NC(=O)[C@@H]([C@H](C)O)NC(=O)[C@@H](Cc2ccccc2)NC(=O)[C@@H](Cc2c[nH]c3ccccc23)NC(=O)[C@@H](CCSC)NC(=O)[C@H](NC(=O)[C@H](CCCCN)NC(=O)[C@H](CCCCN)NC(=O)[C@H](CCCNC(=N)N)NC(=O)[C@@H](N)CCCNC(=N)N)CSSC[C@H](C(=O)O)NC(=O)[C@@H](CC(N)=O)NC1=O [PSP V A11, M-RRKKcmwftfinc-OH] (H-RRKK[dC][dM][dW][dF][dT][dF][dI][dN][dC]-OH; disulfide 5-13; N-terminus assumed)", "H1N1 A/PR/8/1934", "% Inhibition", "=", 92),
    ("CC[C@@H](C)[C@H]1NC(=O)[C@@H](Cc2ccccc2)NC(=O)[C@@H]([C@H](C)O)NC(=O)[C@@H](Cc2ccccc2)NC(=O)[C@@H](Cc2c[nH]c3ccccc23)NC(=O)[C@@H](CCCNC(=N)N)NC(=O)[C@H](NC(=O)[C@H](CCCCN)NC(=O)[C@H](CCCCN)NC(=O)[C@H](CCCNC(=N)N)NC(=O)[C@@H](N)CCCNC(=N)N)CSSC[C@H](C(=O)O)NC(=O)[C@@H](CC(N)=O)NC1=O [PSP V A15, H-RRKKcrwftfinc-OH] (H-RRKK[dC][dR][dW][dF][dT][dF][dI][dN][dC]-OH; disulfide 5-13)", "H1N1 A/PR/8/1934", "% Inhibition", "=", 87),
    ("CC[C@@H](C)[C@H]1NC(=O)[C@@H](Cc2ccccc2)NC(=O)[C@@H]([C@H](C)O)NC(=O)[C@@H](Cc2ccccc2)NC(=O)[C@@H](Cc2c[nH]c3ccccc23)NC(=O)[C@@H](CO)NC(=O)[C@H](NC(=O)[C@H](CCCCN)NC(=O)[C@H](CCCCN)NC(=O)[C@H](CCCNC(=N)N)NC(=O)[C@@H](N)CCCNC(=N)N)CSSC[C@H](C(=O)O)NC(=O)[C@@H](CC(N)=O)NC1=O [PSP V A16, H-RRKKcswftfinc-OH] (H-RRKK[dC][dS][dW][dF][dT][dF][dI][dN][dC]-OH; disulfide 5-13)", "H1N1 A/PR/8/1934", "% Inhibition", "=", 54),
    ("CC[C@@H](C)[C@H]1NC(=O)[C@@H](Cc2ccccc2)NC(=O)[C@@H]([C@H](C)O)NC(=O)[C@@H](Cc2ccccc2)NC(=O)[C@@H](Cc2c[nH]c3ccccc23)NC(=O)[C@@H](CS)NC(=O)[C@H](NC(=O)[C@H](CCCCN)NC(=O)[C@H](CCCCN)NC(=O)[C@H](CCCNC(=N)N)NC(=O)[C@@H](N)CCCNC(=N)N)CSSC[C@H](C(=O)O)NC(=O)[C@@H](CC(N)=O)NC1=O [PSP V A2, H-RRKKccwftfinc-OH] (H-RRKK[dC][dC][dW][dF][dT][dF][dI][dN][dC]-OH; disulfide 5-13)", "H1N1 A/PR/8/1934", "% Inhibition", "<", 20),
    ("CC[C@@H](C)[C@H]1NC(=O)[C@@H](Cc2ccccc2)NC(=O)[C@@H]([C@H](C)O)NC(=O)[C@@H](Cc2ccccc2)NC(=O)[C@@H](Cc2c[nH]c3ccccc23)NC(=O)[C@@H](Cc2c[nH]c3ccccc23)NC(=O)[C@H](NC(=O)[C@H](CCCCN)NC(=O)[C@H](CCCCN)NC(=O)[C@H](CCCNC(=N)N)NC(=O)[C@@H](N)CCCNC(=N)N)CSSC[C@H](C(=O)O)NC(=O)[C@@H](CCCNC(=N)N)NC1=O [PSP VI A15, H-RRKKcwwftfirc-OH] (H-RRKK[dC][dW][dW][dF][dT][dF][dI][dR][dC]-OH; disulfide 5-13)", "H1N1 A/PR/8/1934", "% Inhibition", "=", 92),
    ("CC[C@@H](C)[C@H]1NC(=O)[C@@H](Cc2ccccc2)NC(=O)[C@@H]([C@H](C)O)NC(=O)[C@@H](Cc2ccccc2)NC(=O)[C@@H](Cc2c[nH]c3ccccc23)NC(=O)[C@@H](Cc2c[nH]c3ccccc23)NC(=O)[C@H](NC(=O)[C@H](CCCCN)NC(=O)[C@H](CCCCN)NC(=O)[C@H](CCCNC(=N)N)NC(=O)[C@@H](N)CCCNC(=N)N)CSSC[C@H](C(=O)O)NC(=O)[C@@H](CCC(N)=O)NC1=O [PSP VI A14, H-RRKKcwwftfiqc-OH] (H-RRKK[dC][dW][dW][dF][dT][dF][dI][dQ][dC]-OH; disulfide 5-13)", "H1N1 A/PR/8/1934", "% Inhibition", "=", 85),
    ("CC[C@@H](C)[C@H]1NC(=O)[C@@H](Cc2ccccc2)NC(=O)[C@@H]([C@H](C)O)NC(=O)[C@@H](Cc2ccccc2)NC(=O)[C@@H](Cc2c[nH]c3ccccc23)NC(=O)[C@@H](C)NC(=O)[C@H](NC(=O)[C@H](CCCCN)NC(=O)[C@H](CCCCN)NC(=O)[C@H](CCCNC(=N)N)NC(=O)[C@@H](N)CCCNC(=N)N)CSSC[C@H](C(=O)O)NC(=O)[C@@H](CC(N)=O)NC1=O [PSP V A1, H-RRKKcawftfinc-OH] (H-RRKK[dC][dA][dW][dF][dT][dF][dI][dN][dC]-OH; disulfide 5-13)", "H1N1 A/PR/8/1934", "% Inhibition", "<", 20),
]
